Each recorded value in this set is attributed to PubChem BioAssay AID504810.

Target: Thyrotropin receptor (Homo sapiens) (UniProt P16473)
Sequence (P16473 whole entry, looked up): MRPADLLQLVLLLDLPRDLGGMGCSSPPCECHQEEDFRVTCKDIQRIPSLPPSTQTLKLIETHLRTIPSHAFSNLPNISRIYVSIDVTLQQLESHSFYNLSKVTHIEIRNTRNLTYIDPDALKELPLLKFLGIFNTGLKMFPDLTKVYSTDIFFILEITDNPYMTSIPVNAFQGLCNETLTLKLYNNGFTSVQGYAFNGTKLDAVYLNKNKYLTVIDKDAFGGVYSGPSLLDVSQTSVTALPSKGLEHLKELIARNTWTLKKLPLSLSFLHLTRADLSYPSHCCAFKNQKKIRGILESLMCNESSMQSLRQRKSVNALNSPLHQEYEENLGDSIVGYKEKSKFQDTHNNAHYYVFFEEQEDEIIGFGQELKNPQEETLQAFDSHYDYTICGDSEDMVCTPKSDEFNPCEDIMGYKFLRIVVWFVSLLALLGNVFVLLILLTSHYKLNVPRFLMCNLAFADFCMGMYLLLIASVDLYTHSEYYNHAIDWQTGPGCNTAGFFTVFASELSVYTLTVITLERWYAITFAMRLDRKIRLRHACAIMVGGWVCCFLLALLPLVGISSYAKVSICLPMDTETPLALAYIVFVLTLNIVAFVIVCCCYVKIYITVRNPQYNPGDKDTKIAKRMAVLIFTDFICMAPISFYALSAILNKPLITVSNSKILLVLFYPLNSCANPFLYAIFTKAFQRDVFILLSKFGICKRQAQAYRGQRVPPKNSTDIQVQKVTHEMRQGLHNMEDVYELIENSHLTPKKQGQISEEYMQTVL
Assay: Antagonists of the Thyroid Stimulating Hormone Receptor: HTS campaign; also: % is scaled to controls: 0 for no effect and ±100 for the full control effect
Settings: TSHR-expressing cells, TSH-stimulated cAMP HTRF, 2 h; at 11.5 µM; stronger effect = lower value
Description: The thyroid-stimulating hormone receptor (TSHR) is a member of the 7 trans-membrane-spanning receptor (7TMR) family of cell surface receptors. TSHR-mediated hyperthyroidism is important in thyroid pathology. […] 1. […] The result is obtained by using a ViewLux read-out with HTRF settings.
In all, about 330,000 compounds went through this assay and about 670 (0.2%) were called active. What follows is part of a selection rich in actives, with near analogues and random picks from the rest.
Readout name: activity change, negative = inhibition (%)
Give the number; % is assumed, so skip it.

Query string: Please look up its activity change, negative = inhibition: CCc1nonc1NC(=O)c1oc2ccc(Cl)cc2c1C
Result string: 3.96

Query string: Please give the result for CC(C)c1ccc(NC(=S)NC2CC3C=CC2C3)cc1 (stereo unspecified) too.
Result string: -4.5

New cases:
Query string: Please look up its activity change, negative = inhibition: CCN(/N=C/c1ccc(N(C)C)cc1)c1nc2ccccc2[nH]1
Result string: -6.71

Query string: Please give the result for CCC1SC2=NCCN2C1(O)c1ccc(Cl)cc1 (stereo unspecified) too.
Result string: 6.43

Query string: Please give the result for CCOC(=O)C1(Cc2ccccc2C)CCCN(C(=O)c2ccc(COC)o2)C1 (stereo unspecified) too.
Result string: 26.3
